experiment: viability loss in THP-1 monocytes – THP-1 cells, cytotoxicity control for Vif-APOBEC3G degradation inhibitor project, dose response (AID 1117359)
Assay type: functional
conditions-used: Human immunodeficiency virus 1, THP-1
Calls of active or inactive are those of the source. The rule behind the calls is not given here.
measured-quantity: CC50

### Prompt Item under review: `COc1ccc(CCN(C)C(=O)COC(=O)/C=C/c2ccc(C)o2)cc1OC` . Reported CC50?
### Response > 40 µM (active)

### Prompt CC50 lookup needed for CC1=C(O)C(=O)C=C2C1=CC=C1C2(C)CCC2(C)C3CC(C)(C(=O)O)CCC3(C)CCC12C (centres undefined) , thanks.
### Response 1.01 µM (active)

### Prompt What value of CC50 has been reported for the following molecule? `COc1ccccc1-c1c(C)nn2c(O)c(Cc3ccccc3)c(C)nc12`
### Response > 40 µM (active)

### Prompt # lookup: CC50 of `COc1cccc(/C=C2\SC(N)=NC2=O)c1OS(=O)(=O)c1ccccc1`
### Response > 40 µM (active)
